The measured values listed here are drawn from paper PMC6821881.

target: T1, ZIKV E DIII protein (residues 301-403) (Zika virus, isolate GZ01 (KU820898)); assay: ELISA; E protein or E DIII protein captured separately onto ELISA plates overnight at 4°C; each mAb (full-length IgG) serially diluted and applied; detected with anti-human IgG-HRP and TMB; EC50 by dose-response stimulation model; conditions: both partners purified
T1 construct: source: E. coli BL21 (RIL), pET28a, IPTG-induced; inclusion bodies solubilized and re-folded
readout: binding result

INSERT INTO assay_data (binder, reading) VALUES
  ('2H-10 (antibody, V domains shown, also called ZK2B10 heavy chain somatic variant 2H-10; source: HEK 293T, transiently co-transfected, purified from supernatant (protein A agarose)) VH: QVQLVQSGVEVKKPGASVEVSCQASGITSTSYDINWVRQANGQGLEWMGWMNPNSGNTGYAQKFQGRVTMTRNTSISTAYMELSSLRSEDTAVYYCARVSSGSYYGSYYYYYYGMDVWGQGTTVTVSS VL: SYELTQPPSASGTPGQRVTISCSGSSSNIGNNYVHWYQQLPGSAPKLLIYRNNQRPSGVPDRFSGSKSGTSGSLAISGLRSEDEADYYCASWDDSLSGHWVFGGGTKVTVL', 'binds'),
  ('2H-5 (antibody, V domains shown, also called ZK2B10 heavy chain somatic variant 2H-5; source: HEK 293T, transiently co-transfected, purified from supernatant (protein A agarose)) VH: QVQLVQSGAEVKKPGASVNVSCKASGYTFTMYDINWVRQTTGQGLEWMGWMNPNSGNTGYAQKFQGRVTMTRNTSISTAYMELSSLRSEDTAVYYCARVSSGSYYGSYYYYYYGMDVWGQGTTVTVSS VL: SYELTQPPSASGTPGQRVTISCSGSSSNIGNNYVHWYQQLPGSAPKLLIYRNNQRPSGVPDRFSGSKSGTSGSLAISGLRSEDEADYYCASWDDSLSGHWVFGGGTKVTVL', 'binds');
